Sourced from ChEMBL document CHEMBL1938298

- experiment.notes: Metabolic stability in ddY mouse brain assessed as compound remaining at 185 kBq after 30 mins by radio-TLC
- Format: ADME, tissue-based
- details: read-out: Stability
readout: remaining at 0.5 h
I'd appreciate it if you included the unit after the number.

Query: Value lookup for remaining at 0.5 h; key = CN1CCCC[C@H]1[C@@H](NC(=O)c1cccc(C(F)(F)F)c1[125I])c1ccccc1
Reply: 90%
